Listed next: entries and their corresponding ELISA signal.
Target: T1, rat B7H3-His (rat, UniProt Q7TPB4 29-244, limits assumed)
T1 construct: not shown: His tag
T1 sequence (looked up): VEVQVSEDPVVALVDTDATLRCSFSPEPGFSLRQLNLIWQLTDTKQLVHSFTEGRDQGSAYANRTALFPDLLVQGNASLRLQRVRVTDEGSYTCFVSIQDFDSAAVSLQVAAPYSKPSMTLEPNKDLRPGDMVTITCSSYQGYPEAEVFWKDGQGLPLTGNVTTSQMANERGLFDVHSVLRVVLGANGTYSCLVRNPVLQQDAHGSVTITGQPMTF
Assay: phage ELISA, cross-species
Answer with the value's number alone.

[Q] // returns reported ELISA signal for input RWC3 (VHH, Camel VHH; tag not described; also called camel antibody RWC3) VHH: QVQLVESGGGLVQPGGSLSVSCAASGFTFSVYWFYWVRQAPRQGLEWVSTIASNGSTYYSDSVKGRFTISRDNAKNTVYLQMNSLKPEDTAVYYCVSDPDYYSDYERAYKFWAQGTQVTVSS
[A] 0.738
